Please go through the items and note down their sfGFP reporter fluorescence.
B1: library; numbered along this chain (parent)
chain: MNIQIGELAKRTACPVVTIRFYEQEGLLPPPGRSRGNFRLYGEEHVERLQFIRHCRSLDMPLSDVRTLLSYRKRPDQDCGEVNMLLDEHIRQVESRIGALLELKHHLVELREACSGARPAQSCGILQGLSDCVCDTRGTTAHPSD

- Variants of: B1
- procedure_summary: sfGFP reporter fluorescence (15 h) (µM FITC); higher = stronger transcriptional activation
- run_conditions: library round: Round 0; ligand: 30 µM Zn
Numbers only.

Some solved entries appear below for comparison.
sequence_code	sfGFP reporter fluorescence
MNIQIGELAKRTACPVVTIRFYEQEGLLPPPGRSRGNFRLYGEEHVERLQFIRHCRSLDMPLSKVRTLLSYRKRPDQDCGEVNMLLDEHIRQVESRIGALLELKHHLVELREACSGARPAQSCGILQGLSDCVCDTRGTTAHPSD [D64K]	3.31
MNIQIGELAKRTACPVVTIRFYEQEGLVPPPGRSRGNFRLYGEEHVERLQFIRHCRSLDMPLSDVRTLLSYRKRPDQDCGEVNMLLDEHIRQVESRIGALLELKHHLVELREACSGARPAQSCGILQGLSDCVCDTRGTTAHPSD [L28V]	0.512
MNIQIGELAKRTACPVVTIRFYEQEGLLPVPGRSRGNFRLYGEEHVERLQFIRHCRSLDMPLSDVRTLLSYRKRPDQDCGEVNMLLDEHIRQVESRIGALLELKHHLVELREACSGARPAQSCGILQGLSDCVCDTRGTTAHPSD [P30V]	1
MNIQIGELAKRTACPVVTIRFYEQEGLLPQPGRSRGNFRLYGEEHVERLQFIRHCRSLDMPLSDVRTLLSYRKRPDQDCGEVNMLLDEHIRQVESRIGALLELKHHLVELREACSGARPAQSCGILQGLSDCVCDTRGTTAHPSD [P30Q]	1.19
MNIQIGELAKRTACPVVTIRFYEQEGLLPPPGRSRGNFRLYGEEHVERLQFIRHCRSLDLNLSKVRTLLSYRKRPDQDCGEVNMLLDEHIRQVESRIGALLELKHHLVELREACSGARPAQSCGILQGLSDCVCDTRGTTAHPSD [M60L P61N D64K]	3.74
MNIQIGELAKRTACPVVTIRFYEQEGLLPPPGRSRGNFRLYGEEHVERLQFIRHTRSLDMPLSDVRTLLSYRKRPDQDCGEVNMLLDEHIRQVESRIGALLELKHHLVELREACSGARPAQSCGILQGLSDCVCDTRGTTAHPSD [C55T]	0.129
MNIQIGELAKRTACPVVTIRFYEQEGLLPPPGRSRGNFRLYGEEHVERLQFIRHCRSLDMPLSDVRTLLSYRKRPDQDCGEVNMLLDEHIRQVESRIGALLELKHHLVELREACSGARPAQSCGILQGLSDCVCPTRGTTAHPSD [D135P]	0.672
MNIQIGELAKRTACPVVTIGFYEQEGLLPPPGRSRGNFRLYGEEHVERLQFIRHCRSLDMPLSDVRTLLSYRKRPDQDCGEVNMLLDEHIRQVESRIGALLELKHHLVELREACSGARPAQSCGILQGLSDCVCDTRGTTAHPSD [R20G]	0.0625
MNIQIGELAKRTACPVVTIRFYEQEGLLPPPGRSRGNFRLYGEEHVERLQFIRHCRSLDMPLSDVRTLLSYRKRPAQDCGEVNMLLDEHIRQVESRIGALLELKHHLVELREACSGARPAQSCGILQGLSDCVCDTRGTTAHPSD [D76A]	0.202
MNIQIGELAKRTACPVVTIRFYEQEGLLPPPGRSRGNFRLYGEEHVERLQFIRHCRSLDMELSDVRTLLSYRKRPDQDCGEVNMLLDEHIRQVESRIGALLELKHHLVELREACSGARPAQSCGILQGLSDCVCDTRGTTAHPSD [P61E]	0.338

// for each variant below, give its sfGFP reporter fluorescence
1. MNIQIGELAKRTACPVVTIRFYEQEGLLPPPGRSRGNFRLYGEEHVERLQFIRHCRSLDMPLSDVRTLLSYRKRPDQDCGEVNMLLDEHHRQVESRIGALLELKHHLVELREACSGARPAQSCGILQGLSDCVCDTRGTTAHPSD [I90H]
2. MNIQIGELAKRTACPVVTIRFDEQEGLLPPPGRSRGNFRLYGEEHVERLQFIRHCRSLDMPLSDVRTLLSYRKRPDQDCGEVNMLLDEHIRQVESRIGALLELKHHLVELREACSGARPAQSCGILQGLSDCVCDTRGTTAHPSD [Y22D]
3. MNIQIGELAKRTACPVVTIRFYEQEGLLPPPGRSRGNFRLYGEEHVERLQFIRHCRSLDMPLSDVRTLLSYRKRPDQDCGEVNMLLDEHIRQVESRIGALLELKHHLVELGEACSGARPAQSCGILQGLSDCVCDTRGTTAHPSD [R111G]

Result ::
1: 0.755; 2: 0.0601; 3: 0.343

// for each variant below, give its sfGFP reporter fluorescence
1. MNIQIGELAKRTACPVVTIRFYEQEGLLPPPGRSRGNFRLYGEEHVERLQFIRHCRSLDMPLSDVRTLLSYRKRPDQDCGEVHMLLDEHIRQVESRIGALLELKHHLVELREACSGARPAQSCGILQGLSDCVCDTRGTTAHPSD [N83H]
2. MNIQIGELAKRTACPVVTIRFYEQEGLLPPPGRSRGNFRLYGEEHVERLQFIRHCRSLDMPLSDVRTLLSYRKRPDQDCGEVWMLLDEHIRQVESRIGALLELKHHLVELREACSGARPAQSCGILQGLSDCVCDTRGTTAHPSD [N83W]
3. MNIQIGELAKRTACPVVTIRFYEQEGLLPPPGRSRGNFRLYGEEHVERLQFIRHCRSLDMPLSDVRTLLSYRKRPDQDCGEVNMLLDEHIRQVESRIGALLELKHHLVELREACSGARPAQSCGILQGLSDCVCYTRGTTAHPSD [D135Y]
4. MNIQIGELAKRTACPVVTIRFYEQEGLLPPPGRSRGNFRLYGEEHVERLQFIRHCRSLDMPLSDVRTLLSYRKRPDQDCGEVNMLLDEHIRQVESRIGALLELKHHLVERREACSGARPAQSCGILQGLSDCVCDTRGTTAHPSD [L110R]
5. MNIQIGELAKRTACPVVTIRFYEQEGLLPPPGRSRGNFRLYGEEHVERLQFIRHCRSLDMPLSDVRTLLSYRKRPDQDCGEVNMLLDEHIRQVESRIGALLELKHHLVELREATSGARPAQSCGILQGLSDCVCDTRGTTAHPSD [C114T]
6. MNIQIGELAKRTACPVVTIRKYEQEGLLPPPGRSRGNFRLYGEEHVERLQFIRHCRSLDMPLSDVRTLLSYRKRPDQDCGEVNMLLDEHIRQVESRIGALLELKHHLVELREACSGARPAQSCGILQGLSDCVCDTRGTTAHPSD [F21K]

Result ::
3.53
0.0619
1.46
0.0662
0.0544
0.0641

// for each variant below, give its sfGFP reporter fluorescence
1. MNIQIGELAKRTACPVVTIRFYEQEGLLPPPGRSRGNFRLYGEEHVERLQFIRHCRSLDMPLSDVRTLLSYRKRPDQDCGEVNMLLDEHIRQVESRIGALLELHHHLVELREACSGARPAQSCGILQGLSDCVCDTRGTTAHPSD [K104H]
2. MNIQIGELAKRTACPVVTIRFYEQEGLLPPPGRSRGNFRLYGEEHVERLQFIRHCRSLDMPLSDVRTLLSYRKRPDQDCGEVNMLLDEHIRQVESRIGALLELKHHLVELREACSGARPAQSCGILQLLSDCVCDTRGTTAHPSD [G128L]
3. MNIQIGELAKRTACPVVTIRFYEQEGLLPPPGRSRGNFRLYGEEHVERLQFIRHCRSLDMWLSDVRTLLSYRKRPDQDCGEVNMLLDEHIRQVESRIGALLELKHHLVELREACSGARPAQSCGILQGLSDCVCDTRGTTAHPSD [P61W]
4. MNIQIGELAKRTACPVVTIRFYEQEGLLPPPGRSRGNFRLYGEEHVERLQFIRHCRSLDMPLSDVRTLLSYRKRPDQDCGEVNMLLDEHIRQVESRIGALLELKHHLVEFREACSGARPAQSCGILQGLSDCVCDTRGTTAHPSD [L110F]
5. MNIQIGELAKRTACPVVTIRFYEQEGLLPPPGRSRGNFRLYGEEHVERLQFIRHCRSLDMPLSDVRTLLSYRKRPDQDCGEVNMLLDEHIRQVESRIGALLELKHHLVELREACSGARPAQSCGILQGASDCVCDTRGTTAHPSD [L129A]
6. MNIQIGELAKRTACPVVTIRFYEQEGLLPPPGRSRGNFRLYGEEHVERLQFIRHCRSLDMPLSDVRTLLSYRKRPDQDCGEVNMLLDEHIRQVESRGGALLELKHHLVELREACSGARPAQSCGILQGLSDCVCDTRGTTAHPSD [I97G]

Result ::
1.56
2.04
0.104
0.0619
0.0574
0.404

Values were extracted from the supplement of paper PMC12783771.
